assay: Ratio of AUC in brain to plasma in C57Bl/6J mouse at 25 mg/kg, sc; format: ADME, organism-based; design: dose 25 mg/kg, route subcutaneous; settings: brain and plasma, read-out: Ratio AUC
MEASURED_ENDPOINT: Kp

The reported value for CCNC(=O)Nc1ccc(Oc2ccc(S(=O)(=O)CC3CS3)cc2)cc1 (stereo unspecified) in terms of Kp is 0.0738

* * *

molecular target: Interstitial collagenase (Homo sapiens) (UniProt P03956); assay: Inhibition of human recombinant MMP-1 catalytic domain at 50 uM by fluorescence spectrophotometric analysis relative to control
Sequence (P03956 whole entry, the tested form may be a part): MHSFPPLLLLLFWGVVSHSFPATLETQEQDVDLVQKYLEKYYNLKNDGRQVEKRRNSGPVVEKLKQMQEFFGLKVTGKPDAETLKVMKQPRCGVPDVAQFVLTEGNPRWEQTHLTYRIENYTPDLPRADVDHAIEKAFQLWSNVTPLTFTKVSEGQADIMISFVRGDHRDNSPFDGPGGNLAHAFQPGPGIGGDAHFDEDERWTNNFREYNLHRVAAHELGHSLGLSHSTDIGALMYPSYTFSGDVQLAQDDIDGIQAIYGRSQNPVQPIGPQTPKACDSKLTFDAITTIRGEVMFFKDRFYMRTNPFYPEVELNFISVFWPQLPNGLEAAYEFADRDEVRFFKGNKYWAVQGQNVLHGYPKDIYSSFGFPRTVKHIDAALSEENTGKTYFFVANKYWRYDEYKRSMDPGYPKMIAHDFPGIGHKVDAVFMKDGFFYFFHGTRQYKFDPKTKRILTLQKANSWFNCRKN
Activity calls are given as the source filed them. No cut-off for these calls is given here.
MEASURED_ENDPOINT: inhibition

[[record]]
compound = "CCOC(=O)Oc1ccc(Oc2ccc(S(=O)(=O)CC3CS3)cc2)cc1 (stereo unspecified)"
measurement = "inactive"

[[record]]
compound = "CCCOC(=O)Oc1ccc(Oc2ccc(S(=O)(=O)CC3CS3)cc2)cc1 (stereo unspecified)"
measurement = "inactive"

[[record]]
compound = "CCCOC(=O)Nc1ccc(Oc2ccc(S(=O)(=O)CC3CS3)cc2)cc1 (stereo unspecified)"
measurement = "inactive"

[[record]]
compound = "CNC(=O)Nc1ccc(Oc2ccc(S(=O)(=O)CC3CS3)cc2)cc1 (stereo unspecified)"
measurement = "inactive"

[[record]]
compound = "CCNC(=O)Nc1ccc(Oc2ccc(S(=O)(=O)CC3CS3)cc2)cc1 (stereo unspecified)"
measurement = "inactive"

[[record]]
compound = "CNC(=O)Oc1ccc(Oc2ccc(S(=O)(=O)CC3CS3)cc2)cc1 (stereo unspecified)"
measurement = "8%"

[[record]]
compound = "COC(=O)Oc1ccc(Oc2ccc(S(=O)(=O)CC3CS3)cc2)cc1 (stereo unspecified)"
measurement = "7%"

[[record]]
compound = "CCNC(=O)Oc1ccc(Oc2ccc(S(=O)(=O)CC3CS3)cc2)cc1 (stereo unspecified)"
measurement = "inactive"

[[record]]
compound = "CCCNC(=O)Nc1ccc(Oc2ccc(S(=O)(=O)CC3CS3)cc2)cc1 (stereo unspecified)"
measurement = "inactive"

[[record]]
compound = "CC(C)NC(=O)Oc1ccc(Oc2ccc(S(=O)(=O)CC3CS3)cc2)cc1 (stereo unspecified)"
measurement = "inactive"


Now consider a different compound.
The reported value for CC(C)NC(=O)Nc1ccc(Oc2ccc(S(=O)(=O)CC3CS3)cc2)cc1 (stereo unspecified) in terms of inhibition is inactive
